Data origin: the supplement of paper PMC11061612

// values below are reported combination Emax
system: NCI-H2722 (Mesothelioma); experiment: combination Emax (second highest fraction inhibited in the dose matrix, 72 h); higher = more inhibition; extreme values may be limits of the assay
Reply with just the number.

Consider the reported combination Emax for these compounds:
1) C[C@@H](c1ccc2nccn2c1)n1nnc2ncc(-c3cnn(C)c3)nc21 [Savolitinib] + CC1(C)CCC(CN2CCN(c3ccc(C(=O)NS(=O)(=O)c4ccc(NCC5CCOCC5)c([N+](=O)[O-])c4)c(Oc4cnc5[nH]ccc5c4)c3)CC2)=C(c2ccc(Cl)cc2)C1 [Venetoclax] (first compound max 1 µM, 7x7, partner max 1 µM) = 0.159
2) CC(=O)c1c(C)c2cnc(Nc3ccc(N4CCNCC4)cn3)nc2n(C2CCCC2)c1=O [Palbociclib] + CN(CC[C@H](CSC1=CC=CC=C1)NC2=C(C=C(C=C2)S(=O)(=O)NC(=O)C3=CC=C(C=C3)N4CCC(CC4)[C@H](C5=CC=CC=C5C6=CC=C(C=C6)Cl)O)S(=O)(=O)C(F)(F)F)CCO [AZD4320] (first compound max 10 µM, 7x7, partner max 1 µM) = 0.283
3) CN(CCO)CC[C@H](CSc1ccccc1)Nc1ccc(S(=O)(=O)NC(=O)c2ccc(N3CCC([C@@H](O)c4ccccc4-c4ccc(Cl)cc4)CC3)cc2)cc1S(=O)(=O)C(F)(F)F [AZD4320] + CN(C)CCCOc1ccc(-c2ccc3ncc4c(c3c2)n(C2CCOCC2)c(=O)n4C)cn1 [AZD0156] (first compound max 1 µM, 7x7, partner max 1 µM) = 0.285
4) CC(=O)c1c(C)c2cnc(Nc3ccc(N4CCNCC4)cn3)nc2n(C2CCCC2)c1=O [Palbociclib] + Cc1c2c(nn1C)CSCc1cc(n(C)n1)CSc1cc(c3ccccc3c1)OCCCc1c(C(=O)O)n(C)c3c-2c(Cl)ccc13 [AZD5991] (first compound max 10 µM, 7x7, partner max 1 µM) = 0.213
5) COc1cc2ncnc(Nc3ccc(F)c(Cl)c3)c2cc1OCCCN1CCOCC1 [Gefitinib] + CC(C)n1c(=O)n(C)c2cnc3cc(F)c(-c4ccc(OCCCN5CCCCC5)nc4)cc3c21 [AZD1390] (first compound max 10 µM, 7x7, partner max 0.3 µM) = 0.0368
6) Cc1c2c(nn1C)CSCc1cc(n(C)n1)CSc1cc(c3ccccc3c1)OCCCc1c(C(=O)O)n(C)c3c-2c(Cl)ccc13 [AZD5991] + C[C@@H]1COCCN1C2=NC(=NC(=C2)C3(CC3)[S@](=N)(=O)C)C4=C5C=CNC5=NC=C4 [AZD6738] (first compound max 1 µM, 7x7, partner max 10 µM) = 0.401
7) COc1cccc(OCCCN)c1-c1cc(Nc2cnc(C#N)cn2)n[nH]1 [Prexasertib] + O=C(c1cc(Cc2n[nH]c(=O)c3ccccc23)ccc1F)N1CCN(C(=O)C2CC2)CC1 [Olaparib] (first compound max 1 µM, 7x7, partner max 10 µM) = 0.234
8) COc1cc2c(cc1OCCCCCOc1cc3c(cc1OC)C(=O)N1C=C(C)C[C@H]1C=N3)N=C[C@@H]1CC(C)=CN1C2=O [SG3199] + O=C(c1cc(Cc2n[nH]c(=O)c3ccccc23)ccc1F)N1CCN(C(=O)C2CC2)CC1 [Olaparib] (first compound max 0.001 µM, 7x7, partner max 10 µM) = 0.134

Query block: # value lookup — system NCI-H2722 (Mesothelioma), readout combination Emax, item C[C@@H]1COCCN1c1cc(C2([S@](C)(=N)=O)CC2)nc(-c2ccnc3[nH]ccc23)n1 [AZD6738] + O=C(c1cc(Cc2n[nH]c(=O)c3ccccc23)ccc1F)N1CCN(C(=O)C2CC2)CC1 [Olaparib] (first compound max 10 µM, 7x7, partner max 10 µM)
Result block: 0.292

Query block: Please do the same for COc1nnc2ccc(N3CCC(c4ccc(OCCN5CCN(C)C(=O)[C@H]5C)cc4)CC3)nn12 [AZD5153] + C=CCn1c(=O)c2cnc(Nc3ccc(N4CCN(C)CC4)cc3)nc2n1-c1cccc(C(C)(C)O)n1 [AZD1775] (first compound max 1 µM, partner max 1 µM) as well.
Result block: 0.58

Query block: Similarly, CN(CCO)CC[C@H](CSc1ccccc1)Nc1ccc(S(=O)(=O)NC(=O)c2ccc(N3CCC([C@@H](O)c4ccccc4-c4ccc(Cl)cc4)CC3)cc2)cc1S(=O)(=O)C(F)(F)F [AZD4320] + C[C@@H]1COCCN1C2=NC(=NC(=C2)C3(CC3)[S@](=N)(=O)C)C4=C5C=CNC5=NC=C4 [AZD6738] (first compound max 1 µM, 7x7, partner max 10 µM) ?
Result block: 0.503

Query block: Follow-up item: Cc1c2c(nn1C)CSCc1cc(n(C)n1)CSc1cc(c3ccccc3c1)OCCCc1c(C(=O)O)n(C)c3c-2c(Cl)ccc13 [AZD5991] + C[C@@H](Nc1cc(F)cc(F)c1)c1cc(C(=O)N(C)C)cc2c(=O)cc(N3CCOCC3)oc12 [AZD8186] (first compound max 1 µM, 7x7, partner max 3 µM)
Result block: 0.197

Query block: Then COc1cccc2c1C(=O)c1c(O)c3c(c(O)c1C2=O)C[C@@](O)(C(=O)CO)C[C@@H]3O[C@H]1C[C@H](N)[C@H](O)[C@H](C)O1 [Doxorubicin] + Cc1cc2ncnn2cc1Nc1ncc2c(n1)n(C1CCOCC1)c(=O)n2C [AZD7648] (first compound max 1 µM, 7x7, partner max 10 µM) ?
Result block: 0.823
